system: MA-treated mice; assay: Striatal dopamine and metabolites in MA-treated mice; type: in vivo; settings: morphinan 24 (mg/kg) + MA
Marks after values point to notes of the source that are not given here.
Concentration DOPAC in the striatum values for the molecules below.

| Molecule | Value Measured |
| --- | --- |
| C=CCOc1ccc2c(c1)[C@@]13CCCC[C@H]1[C@@H](C2)N(C)CC3 | 96 ± 10^b ng/100 mg wet tissue |

query: Please report the measured Concentration DOPAC in the striatum for `Cc1ccc2c(c1)[C@@]13CCCC[C@H]1[C@@H](C2)N(C)CC3`
result: 94 ± 9^b ng/100 mg wet tissue

query: Please report the measured Concentration DOPAC in the striatum for `CN1CC[C@]23CCCC[C@H]2[C@H]1Cc1ccc(OCC2CC2)cc13`
result: 99 ± 10^b ng/100 mg wet tissue

query: Please report the measured Concentration DOPAC in the striatum for COc1ccc2c(c1)[C@@]13CCCC[C@H]1[C@@H](C2)N(C)CC3 [DM, 3-methoxy-17-methylmorphinan, reference compound]
result: 98 ± 11^b ng/100 mg wet tissue

query: Please report the measured Concentration DOPAC in the striatum for Oc1ccc2c(c1)[C@@]13CCCC[C@H]1[C@@H](C2)NCC3 [HM, 3-hydroxymorphinan]
result: 103 ± 9^d^ ng/100 mg wet tissue
